# Tested on: dihydroorotate dehydrogenase (DHODH)
# assay: DHODH assay
# Type: biochemical
# measurement setup: at 10 μM
Measured Inhibition of DHODH accompanies every entry in the list below.
Kindly answer with a numeric value in %, unit omitted.

Example compounds with recorded Inhibition of DHODH:
CN(C)CCOc1ccc(C(C)(C)C)cc1/C=C/C(=O)c1ccccc1NS(=O)(=O)c1ccccc1 ... 22
COc1ccc(C(=O)/C=C/c2cc(-c3ccccc3C)ccc2OCCN(C)C)c(F)c1 ... 18
COc1ccc(C(=O)/C=C/c2cc(-c3ccccc3C)ccc2OCCN(C)C)cc1 ... 18
COc1ccc(C(=O)/C=C/c2ccccc2)cc1 [4′MC, 4′-methoxy chalcone, reference compound] ... 7
COc1ccc(C(=O)/C=C/c2cc(-c3ccccc3C)ccc2OCCN(C)C)c(Cl)c1 ... 21

Given the compound `COc1ccc(C(=O)/C=C/c2cc(C(C)(C)C)cc(C(C)(C)C)c2OCCN(C)C)c(F)c1` , what is its reported Inhibition of DHODH?
23

Can you handle `C=CC(C)(C)c1cc(/C=C/C(=O)c2ccc(O)cc2)c(OC)cc1O` next?
25

Now the same for `COc1ccc(C(=O)/C=C/c2cc(-c3cc(C)cc(C)c3)ccc2OCCN(C)C)c(Cl)c1`
19

* * *

# assay: Determination of metabolic stability (liver microsomes)
# Type: in vitro ADME
# measurement setup: rat liver microsomes, 20 μM, 15 min
// assign fulfilled if Metabolic turn-over in vitro falls strictly below 8%, else not fulfilled (ties count as not fulfilled)

CN(C)CCCOc1cccc(/C=C/C(=O)c2ccccc2CN(C)C)c1 ... fulfilled
CN(C)CCOc1ccc(-c2ccccc2C(F)(F)F)cc1/C=C/C(=O)c1ccccc1CN(C)C ... fulfilled
Cc1cc(C)cc(-c2ccc(OCCN(C)C)c(/C=C/C(=O)c3ccccc3NCCN(C)C)c2)c1 ... fulfilled
Cc1cc(C)cc(-c2ccc(OCCN(C)C)c(/C=C/C(=O)c3cccc(CN(C)C)c3)c2)c1 ... not fulfilled
COc1ccc(C(=O)/C=C/c2cc(-c3cc(C)cc(C)c3)ccc2OCCN(C)C)c(F)c1 ... fulfilled

Problem: For the compound `COc1ccc(C(=O)/C=C/c2cc(-c3cc(C)cc(C)c3)ccc2OCCN(C)C)c(CN(C)C)c1` , is Metabolic turn-over in vitro under 8%?
fulfilled

// same read-out, input: `C=CC(C)(C)c1cc(/C=C/C(=O)c2ccc(O)cc2)c(OC)cc1O`
not fulfilled

* * *

# Test system: Staphylococcus aureus ATCC33591(resistant to methicillin)
# assay: MIC determination in broth microdilution assay
# measurement setup: B: Staphylococcus aureus ATCC33591(resistant to methicillin)
Overview of reported MIC across a group of molecules:
Write it as a number; the unit µM goes unstated.

A selection of reference data follows.
Cc1cc(C)cc(-c2ccc(OCCN(C)C)c(/C=C/C(=O)c3cccc(O)c3)c2)c1 ... 4.7
CCCc1cc(/C=C/C(=O)c2ccc(OC)cc2F)c(OCCN(C)C)cc1O ... 18.8
Cc1cc(C)cc(-c2ccc(OCCN(C)C)c(/C=C/C(=O)c3ccccc3OC(C)C)c2)c1 ... 4.7
COc1ccc(C(=O)/C=C/c2cc(-c3cc(C)cc(C)c3)ccc2OCCN(C)C)c(CN(C)C)c1 ... 9.4
Cc1cc(C)cc(-c2ccc(OCCN(C)C)c(/C=C/C(=O)c3cccc(N4CCN(C)CC4)c3)c2)c1 ... 4.7
Cc1cc(C)cc(-c2ccc(OCCN(C)C)c(/C=C/C(=O)c3cccc(NCCN(C)C)c3)c2)c1 ... 4.7
COc1ccc(C(=O)/C=C/c2cc(C(C)(C)C)ccc2OCCN(C)C)c(F)c1 ... 9.4

MIC for `Cc1cc(C)cc(-c2ccc(OCCN(C)C)c(/C=C/C(=O)c3cccc(CN(C)C)c3)c2)c1` ?
9.4
